Data origin, for the record: the NIST ThermoML archive (doi:10.1021/je800243y)

Assay: molar heat capacity at constant pressure
Conditions: 303.15 K; 101.33 kPa; Crystal; Large sample (1 g) DSC
property: molar heat capacity at constant pressure (J/K/mol)

O=c1[nH]c(=O)n([C@H]2C[C@H](O)[C@@H](CO)O2)cc1I [5-iodo-2'-deoxyuridine] = 287.61
O=c1ccn([C@H]2C[C@H](O)[C@@H](CO)O2)c(=O)[nH]1 [2'-deoxyuridine] = 266.16
O=c1[nH]c(=O)n([C@H]2C[C@H](O)[C@@H](CO)O2)cc1Br [5-bromo-2'-deoxyuridine] = 263.37
Cc1cn([C@H]2C[C@H](O)[C@@H](CO)O2)c(=O)[nH]c1=O [thymidine] = 278.84
O=c1[nH]c(=O)n([C@@H]2O[C@H](CO)[C@@H](O)[C@H]2O)cc1I [2,4-dihdroxy-5-iodo-1-β-D-ribofurnosylpyrimidine] = 338.14
O=c1[nH]c(=O)n([C@@H]2O[C@H](CO)[C@@H](O)[C@H]2O)cc1Br [5-bromouridine] = 306.16

---

Assay: molar heat capacity at constant pressure
Conditions: 348.15 K; 101.33 kPa; Crystal; Large sample (1 g) DSC
property: molar heat capacity at constant pressure (J/K/mol)

Cc1cn([C@H]2C[C@H](O)[C@@H](CO)O2)c(=O)[nH]c1=O = 298.09
O=c1[nH]c(=O)n([C@H]2C[C@H](O)[C@@H](CO)O2)cc1I = 308.02
O=c1[nH]c(=O)n([C@@H]2O[C@H](CO)[C@@H](O)[C@H]2O)cc1Br = 310.41
O=c1ccn([C@H]2C[C@H](O)[C@@H](CO)O2)c(=O)[nH]1 = 290.86
O=c1[nH]c(=O)n([C@H]2C[C@H](O)[C@@H](CO)O2)cc1Br = 287.81
O=c1[nH]c(=O)n([C@@H]2O[C@H](CO)[C@@H](O)[C@H]2O)cc1I = 344.58

---

Assay: molar heat capacity at constant pressure
Conditions: 298.15 K; 101.33 kPa; Crystal; Large sample (1 g) DSC
property: molar heat capacity at constant pressure (J/K/mol)

O=c1[nH]c(=O)n([C@@H]2O[C@H](CO)[C@@H](O)[C@H]2O)cc1I [2,4-dihdroxy-5-iodo-1-β-D-ribofurnosylpyrimidine] = 337.43
O=c1[nH]c(=O)n([C@@H]2O[C@H](CO)[C@@H](O)[C@H]2O)cc1Br [5-bromouridine] = 305.69
O=c1[nH]c(=O)n([C@H]2C[C@H](O)[C@@H](CO)O2)cc1Br [5-bromo-2'-deoxyuridine] = 260.65
Cc1cn([C@H]2C[C@H](O)[C@@H](CO)O2)c(=O)[nH]c1=O [thymidine] = 276.7
O=c1[nH]c(=O)n([C@H]2C[C@H](O)[C@@H](CO)O2)cc1I [5-iodo-2'-deoxyuridine] = 285.34
O=c1ccn([C@H]2C[C@H](O)[C@@H](CO)O2)c(=O)[nH]1 [2'-deoxyuridine] = 263.41

---

Assay: molar heat capacity at constant pressure
Details: 353.15 K; 101.33 kPa; Crystal; Large sample (1 g) DSC
property: molar heat capacity at constant pressure (J/K/mol)

O=c1ccn([C@H]2C[C@H](O)[C@@H](CO)O2)c(=O)[nH]1 = 293.6
O=c1[nH]c(=O)n([C@H]2C[C@H](O)[C@@H](CO)O2)cc1Br = 290.52
O=c1[nH]c(=O)n([C@@H]2O[C@H](CO)[C@@H](O)[C@H]2O)cc1I = 345.29
O=c1[nH]c(=O)n([C@@H]2O[C@H](CO)[C@@H](O)[C@H]2O)cc1Br = 310.88
Cc1cn([C@H]2C[C@H](O)[C@@H](CO)O2)c(=O)[nH]c1=O = 300.23
O=c1[nH]c(=O)n([C@H]2C[C@H](O)[C@@H](CO)O2)cc1I = 310.3
